experiment: Comparative test of solubility; format: physicochemical; settings: water, thermodynamic from solid
experimental.readout: solubility at 75 min (mg/mL)
# unit: mg/mL | format: bare number

Observe how each entry below is paired with its result.
>  <molecule>
Cc1nsc(NC(=O)c2nc(Sc3nncn3C)ccc2Sc2ccc(OCCN3CCCCC3)cc2)n1

>  <solubility at 75 min, mg/mL>
0.176

$$$$
>  <molecule>
CCN(C)CCOc1ccc(Sc2ccc(Sc3nncn3C)nc2C(=O)Nc2nc(C)ns2)cc1

>  <solubility at 75 min, mg/mL>
0.208

$$$$
>  <molecule>
Cc1nsc(NC(=O)c2nc(Sc3nncn3C)ccc2Sc2ccc(OCCN(C)C)cc2)n1

>  <solubility at 75 min, mg/mL>
0.0152

$$$$
>  <molecule>
Cc1nsc(NC(=O)c2nc(Sc3nncn3C)ccc2Sc2ccc(CCO)cc2)n1 [(A), reference compound]

>  <solubility at 75 min, mg/mL>
0.0024

$$$$
>  <molecule>
Cc1nsc(NC(=O)c2nc(Sc3nncn3C)ccc2Sc2ccc(OC[C@@H]3CCCN3C)cc2)n1

>  <solubility at 75 min, mg/mL>
0.583

$$$$

// query Give solubility at 75 min for CCN(CC)CCOc1ccc(Sc2ccc(Sc3nncn3C)nc2C(=O)Nc2nc(C)ns2)cc1
// result 0.23

// query Give solubility at 75 min for Cc1nsc(NC(=O)c2nc(Sc3nncn3C)ccc2Sc2ccc(O[C@@H]3CCN(C(C)C)C3)cc2)n1
// result 0.127

// query Give solubility at 75 min for CCN1CC(Oc2ccc(Sc3ccc(Sc4nncn4C)nc3C(=O)Nc3nc(C)ns3)cc2)C1
// result 0.0164

// query Give solubility at 75 min for Cc1nsc(NC(=O)c2nc(Sc3nncn3C)ccc2Sc2ccc(OCCN3CCC[C@H]3C)cc2)n1
// result 0.0474
